- systemTested: Reverse transcriptase/RNaseH (Human immunodeficiency virus 1)
- measurementNotes: Effective concentration required to inhibit HIV-1 induced cytopathicity in CEM cell culture by 50%.
pEC50: −log10 of the molar value.
Threshold rule: pEC50 greater than or equal to 5 is rule met; below that, rule not met.

Below, 5 molecules whose answers are already recorded.
1. Cc1cn(C2OC(CO[Si](C)(C)C(C)(C)C)C3(OS(=O)(=O)C(=CCCO)C3=N)C2O[Si](C)(C)C(C)(C)C)c(=O)n(C)c1=O (stereo unspecified) ... rule met
2. CC=C1C(=N)C2(OS1(=O)=O)C(CO)OC(n1cc(C)c(=O)[nH]c1=O)C2O[Si](C)(C)C(C)(C)C (stereo unspecified) ... rule not met
3. COC(=O)CC=C1C(=N)C2(OS1(=O)=O)C(CO[Si](C)(C)C(C)(C)C)OC(n1cc(C)c(=O)[nH]c1=O)C2O[Si](C)(C)C(C)(C)C (stereo unspecified) ... rule met
4. CCOC(=O)CC=C1C(=N)C2(OS1(=O)=O)C(CO[Si](C)(C)C(C)(C)C)OC(n1cc(C)c(=O)[nH]c1=O)C2O[Si](C)(C)C(C)(C)C (stereo unspecified) ... rule met
5. COC(=O)CC=C1C(=N)C2(OS1(=O)=O)C(CO[Si](C)(C)C(C)(C)C)OC(n1cc(C)c(=O)n(C)c1=O)C2O[Si](C)(C)C(C)(C)C (stereo unspecified) ... rule met

Now look at this entry.
Ask: Please indicate if the recorded pEC50 for CC=C1C(=N)C2(OS1(=O)=O)C(CO[Si](C)(C)C(C)(C)C)OC(n1cc(C)c(=O)[nH]c1=O)C2O[Si](C)(C)C(C)(C)C (stereo unspecified) meets or exceeds 5.
Reply: rule met

---

- measurementNotes: Effective concentration required to inhibit HIV-1 induced cytopathicity in CEM cell culture by 50%.
parameterMeasured: pEC50
As a rule, pEC50 stands for the negative log10 of the concentration, concentration in M.

Recorded pEC50, per entry:
1. CC1=C(N)C2(OS1(=O)=O)C(CO[Si](C)(C)C(C)(C)C)OC(n1cc(C)c(=O)n(C)c1=O)C2O[Si](C)(C)C(C)(C)C (stereo unspecified) ... 5.66
2. Cc1cn(C2OC(CO[Si](C)(C)C(C)(C)C)C3(OS(=O)(=O)C(c4ccccc4)=C3N)C2O[Si](C)(C)C(C)(C)C)c(=O)[nH]c1=O (stereo unspecified) ... 5.60
3. Cc1cn([C@@H]2O[C@H](CO[Si](C)(C)C(C)(C)C)[C@@]3(OS(=O)(=O)C(I)=C3N)[C@H]2O[Si](C)(C)C(C)(C)C)c(=O)[nH]c1=O ... 7.22
4. Cc1cn(C2OC(CO[Si](C)(C)C(C)(C)C)C3(OS(=O)(=O)C=C3N)C2O[Si](C)(C)C(C)(C)C)c(=O)n(C)c1=O (stereo unspecified) ... 7.40

Kindly consider the entry below.
Item: Cc1cn(C2OC(CO[Si](C)(C)C(C)(C)C)C3(OS(=O)(=O)C(Br)=C3N)C2O[Si](C)(C)C(C)(C)C)c(=O)[nH]c1=O (stereo unspecified) | pEC50: 6.07

---

- systemTested: Reverse transcriptase/RNaseH (Human immunodeficiency virus 1)
- measurementNotes: Effective concentration required to inhibit HIV-1 induced cytopathicity in MT-4 cell culture by 50%.
parameterMeasured: pEC50
As a rule, pEC50 stands for the negative log10 of the concentration, concentration in M.

Recorded pEC50, per entry:
1. COC(=O)CC=C1C(=N)C2(OS1(=O)=O)C(CO[Si](C)(C)C(C)(C)C)OC(n1cc(C)c(=O)[nH]c1=O)C2O[Si](C)(C)C(C)(C)C (stereo not drawn) ... 5.43
2. COC(=O)CC=C1C(=N)C2(OS1(=O)=O)C(CO[Si](C)(C)C(C)(C)C)OC(n1cc(C)c(=O)n(C)c1=O)C2O[Si](C)(C)C(C)(C)C (stereo not drawn) ... 5.54

Kindly consider the entry below.
Item: Cc1cn([C@@H]2O[C@H](CO[Si](C)(C)C(C)(C)C)[C@@]3(OS(=O)(=O)C(=CCCO)C3=N)[C@H]2O[Si](C)(C)C(C)(C)C)c(=O)[nH]c1=O | pEC50: 5.18

---

- measurementNotes: Effective concentration required to inhibit HIV-1 induced cytopathicity in MT-4 cell culture by 50%.
parameterMeasured: pEC50
As a rule, pEC50 stands for the negative log10 of the concentration, concentration in M.

Recorded pEC50, per entry:
1. CC1=C(N)C2(OS1(=O)=O)C(CO[Si](C)(C)C(C)(C)C)OC(n1cc(C)c(=O)n(C)c1=O)C2O[Si](C)(C)C(C)(C)C (stereo not drawn) ... 6.60
2. Cc1cn(C2OC(CO[Si](C)(C)C(C)(C)C)C3(OS(=O)(=O)C(I)=C3N)C2O[Si](C)(C)C(C)(C)C)c(=O)n(C)c1=O (stereo not drawn) ... 6.96
3. Cc1cn(C2OC(CO[Si](C)(C)C(C)(C)C)C3(OS(=O)(=O)C(c4ccccc4)=C3N)C2O[Si](C)(C)C(C)(C)C)c(=O)n(C)c1=O (stereo not drawn) ... 5.77
4. Cc1cn([C@@H]2O[C@H](CO[Si](C)(C)C(C)(C)C)[C@@]3(OS(=O)(=O)C(I)=C3N)[C@H]2O[Si](C)(C)C(C)(C)C)c(=O)[nH]c1=O ... 6.92

Item: Cc1cn(C2OC(CO[Si](C)(C)C(C)(C)C)C3(OS(=O)(=O)C(Br)=C3N)C2O[Si](C)(C)C(C)(C)C)c(=O)[nH]c1=O (stereo not drawn) | pEC50: 6.03

Item: Cc1cn(C2OC(CO[Si](C)(C)C(C)(C)C)C3(OS(=O)(=O)C(c4ccccc4)=C3N)C2O[Si](C)(C)C(C)(C)C)c(=O)[nH]c1=O (stereo not drawn) | pEC50: 5.17

Item: Cc1cn(C2OC(CO[Si](C)(C)C(C)(C)C)C3(OS(=O)(=O)C(c4ccsc4)=C3N)C2O[Si](C)(C)C(C)(C)C)c(=O)n(C)c1=O (stereo not drawn) | pEC50: 5.64
